# assay-target: human P2X3 receptor (Homo sapiens (Human), UniProt P56373)
# Sequence (P56373 whole entry): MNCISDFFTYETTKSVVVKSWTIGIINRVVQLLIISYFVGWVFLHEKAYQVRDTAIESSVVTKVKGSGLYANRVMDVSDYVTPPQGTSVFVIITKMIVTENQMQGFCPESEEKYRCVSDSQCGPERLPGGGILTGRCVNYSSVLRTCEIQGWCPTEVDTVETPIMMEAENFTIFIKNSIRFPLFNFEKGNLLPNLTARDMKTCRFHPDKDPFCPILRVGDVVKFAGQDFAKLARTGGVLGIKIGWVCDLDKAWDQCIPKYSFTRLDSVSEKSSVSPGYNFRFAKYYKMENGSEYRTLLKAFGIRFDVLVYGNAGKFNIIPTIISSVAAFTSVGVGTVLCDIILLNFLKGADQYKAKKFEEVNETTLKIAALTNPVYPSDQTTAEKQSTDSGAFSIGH
# measurement-description: Evaluation of human P2X3 receptor inhibitory activity (Fluo-3 calcium fluorescence, FDSS 3000, ATP stimulation);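 further: stimulus was 50 nM ATP with fluorescence followed for 3 min, and the response per well was peak post-ATP fluorescence divided by the reading at measurement start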
# Format: cell-based
# condition-notes: C6BU-1 cells stably expressing human P2X3 receptor, Fluo-3 fluorescence, FDSS 3000
Readings of log10(IC50) for the listed compounds
value-kind: log10(IC50) (log10 of the value in nM)

[
  {
    "compound": "CCn1c(=O)[nH]/c(=N\\c2ccc(Oc3cncc(C(=O)OC)c3)cc2)n(Cc2ccc(Cl)cc2)c1=O [Compound I-1863]",
    "log10(IC50)": 0.70
  },
  {
    "compound": "CCn1c(=O)[nH]/c(=N\\c2ccc(Oc3cccc(CC(=O)O)c3)cc2)n(Cc2ccc(Cl)cc2)c1=O [Compound I-1894]",
    "log10(IC50)": 1.36
  },
  {
    "compound": "O=C(O)CCn1c(=O)[nH]/c(=N\\c2cccc(S(F)(F)(F)(F)F)c2)n(Cc2ccc(Cl)cc2)c1=O [Compound I-1651]",
    "log10(IC50)": 1.73
  },
  {
    "compound": "COC(=O)[C@@H](C)Cn1c(=O)nc(Cc2ccc(OC)c(F)c2)n(Cc2ccc(Cl)cc2)c1=O [Compound I-1869]",
    "log10(IC50)": 2.52
  },
  {
    "compound": "CCCCCOc1ccc(/N=c2\\[nH]c(=O)n(C[C@H](C)C(=O)OC)c(=O)n2Cc2ccc(C)cc2)cc1 [Compound I-1057]",
    "log10(IC50)": 1.95
  },
  {
    "compound": "CCOC(=O)CCn1c(=O)[nH]/c(=N\\c2ccc(OC(C)C)c(C)c2)n(Cc2ccc(Cl)cc2)c1=O [Compound I-1155]",
    "log10(IC50)": 0.95
  },
  {
    "compound": "C[C@H](Cn1c(=O)[nH]/c(=N\\c2ccc(OCC3CC3)cc2)n(Cc2ccc(Cl)cc2)c1=O)C(=O)O [Compound I-1037]",
    "log10(IC50)": 1.97
  },
  {
    "compound": "COC(=O)[C@H](C)[C@H](C)n1c(=O)[nH]/c(=N\\c2ccc3nc(C)[nH]c3c2)n(Cc2ccc(Cl)cc2)c1=O [Compound I-1795]",
    "log10(IC50)": 2.90
  },
  {
    "compound": "CCOC(=O)CCCn1c(=O)[nH]/c(=N\\c2ccc3oc(CC)c(C)c3c2)n(Cc2ccc(C)cc2)c1=O [Compound I-1627]",
    "log10(IC50)": 0.95
  },
  {
    "compound": "C[C@@H](C(=O)O)[C@H](C)n1c(=O)[nH]/c(=N\\c2ccc3c(O)cccc3c2)n(Cc2ccc(Cl)cc2)c1=O [Compound I-1826]",
    "log10(IC50)": 2.88
  },
  {
    "compound": "COC(=O)Cn1c(=O)[nH]/c(=N\\c2ccc3nc(C)sc3c2)n(Cc2ccc(Cl)cc2)c1=O [Compound I-1602]",
    "log10(IC50)": 0.70
  },
  {
    "compound": "C=Cc1ccc(Cn2c(=O)n(C[C@H](C)C(=O)O)c(=O)[nH]/c2=N\\c2ccc(OC(C)C)c(C)c2)cc1 [Compound I-0897]",
    "log10(IC50)": 1.40
  },
  {
    "compound": "Cc1cc(/N=c2\\[nH]c(=O)n(C[C@H](C)C(=O)O)c(=O)n2Cc2ccc(Cl)cc2)ccc1CCC1CC1 [Compound I-1024]",
    "log10(IC50)": 2.21
  },
  {
    "compound": "Cc1ccc(Cn2c(=O)n([C@@H](C)[C@@H](C)C(=O)O)c(=O)[nH]/c2=N\\c2ccc(OC(C)C)c(F)c2)cc1 [Compound I-0974]",
    "log10(IC50)": 1.46
  }
]
